system: Plasmodium falciparum; assay: Displacement of [3H]farnesylpyrophosphate from Plasmodium falciparum protein farnesyltransferase at 0.5 nM by scintillation proximity assay
METRIC: inhibition (%)
The reply should contain only the number, in %.

query: Reported inhibition for Plasmodium falciparum, given Cn1cnc(S(=O)(=O)N(C(CC(=O)OC(C)(C)C)C(=O)OC(C)(C)C)C2Cc3cc(C#N)ccc3N(Cc3cncn3C)C2=O)c1 (stereo not drawn) ?
result: 0

query: Record Cn1cnc(S(=O)(=O)N(Cc2ccc(S(C)(=O)=O)cc2)C2Cc3cc(Br)ccc3N(Cc3cncn3C)C2=O)c1 (stereo not drawn) : what is its inhibition with Plasmodium falciparum?
result: 0

Now for the compound whose inhibition we want.
query: inhibition of Cn1cnc(S(=O)(=O)N(Cc2ccc(F)cc2F)C2Cc3cc(C#N)ccc3N(Cc3cncn3C)C2=O)c1 (stereo not drawn) on Plasmodium falciparum?
result: 4

====

organism: Rattus norvegicus; experiment: Inhibition of rat protein farnesyltransferase at 50 nM
METRIC: inhibition (%)
Note: unit % is implicit; provide only the numeric part.

Check out these entries, answers already filled in.
query: For Cn1cnc(S(=O)(=O)N(Cc2ccccc2)C2Cc3cc(C#N)ccc3N(Cc3cncn3C)C2=O)c1 (stereo unspecified) , what is its reported inhibition?
result: 0

query: What value of measured inhibition is listed for Cn1cnc(S(=O)(=O)N(Cc2ccc(-n3cccn3)cc2)C2Cc3cc(C#N)ccc3N(Cc3cncn3C)C2=O)c1 (stereo unspecified) ?
result: 4

query: Endpoint output: inhibition of Cn1cnc(S(=O)(=O)N(Cc2ccc(S(C)(=O)=O)cc2)C2Cc3cc(C#N)ccc3N(Cc3cncn3C)C2=O)c1 (stereo unspecified) . Value?
result: 0

query: Could you tell me which inhibition is on file for Cn1cnc(S(=O)(=O)N(CC(=O)OC(C)(C)C)C2Cc3cc(C#N)ccc3N(Cc3cncn3C)C2=O)c1 (stereo unspecified) ?
result: 23

query: inhibition for Cn1cnc(S(=O)(=O)N(Cc2ccc(S(C)(=O)=O)cc2)C2Cc3cc(Br)ccc3N(Cc3cncn3C)C2=O)c1 (stereo unspecified) ?
result: 0

Next, consider the following molecule.
query: What does the data say about its inhibition? Entry: Cn1cnc(S(=O)(=O)N(CC(=O)NC(C)(C)C)C2Cc3cc(C#N)ccc3N(Cc3cncn3C)C2=O)c1 (stereo unspecified)
result: 0

====

system: Plasmodium falciparum; test: Antimalarial activity against chloroquine-resistant, pyrimethamine-resistant Plasmodium falciparum K1 in human red cells; type: functional; conditions: read-out: ED50 (the source's name)
Below, each of the compounds is paired with its reported pEC50 value.
To interpret pEC50, take it as minus log10 of a concentration measured in moles per litre.

// solved cases for pEC50 follow
query: I am curious: what pEC50 value has been reported for Cc1ccccc1CN(C1Cc2cc(C#N)ccc2N(Cc2cncn2C)C1=O)S(=O)(=O)c1cn(C)cn1 (stereo not given) ?
result: 5.30

query: Which value of pEC50 has been reported for Cn1cnc(S(=O)(=O)N(C(CC(=O)OC(C)(C)C)C(=O)OC(C)(C)C)C2Cc3cc(C#N)ccc3N(Cc3cncn3C)C2=O)c1 (stereo not given) in the records?
result: 5.30

query: Which pEC50 reading was recorded for the compound Cn1cnc(S(=O)(=O)N(Cc2ccccc2)C2Cc3cc(C#N)ccc3N(Cc3cncn3C)C2=O)c1 (stereo not given) ?
result: 7.00

query: # input compound: Cn1cnc(S(=O)(=O)N(CC(=O)NC(C)(C)C)C2Cc3cc(C#N)ccc3N(Cc3cncn3C)C2=O)c1 (stereo not given) ; wanted: its pEC50
result: 7.00

New cases:
query: Any idea what its pEC50 is? The compound is Cn1cnc(S(=O)(=O)N(Cc2ccc(-n3cccn3)cc2)C2Cc3cc(C#N)ccc3N(Cc3cncn3C)C2=O)c1 (stereo not given)
result: 6.82
